All values here come from paper PMC11062899.

Quick list: TIC value of compound, 30 min, R3 per entry.
# test method notes: Metabolic stability in rat liver microsomes (RLMs)
# setup conditions: rat liver microsomes, 30 min, replicate R3
Hey, just send me the number, nothing else.

Solved cases (6 shown):
molecule=O=C1C[C@H]2CCCN2C(=O)[C@H](Cc2ccccc2)NC(=O)[C@@H](NC(=O)c2ccc(Cl)s2)CCCSCc2cccc(n2)CSCCN1 observed_measurement=5638202
molecule=O=C1C[C@H]2CCCN2C(=O)[C@H](Cc2ccccc2)NC(=O)[C@@H](NC(=O)c2ccc(Cl)s2)CSCc2cccc(n2)CSCCN1 observed_measurement=9842710
molecule=O=C1CSCCC[C@H](NC(=O)c2ccc(Cl)s2)C(=O)N[C@@H](Cc2ccccc2)C(=O)N2CCC[C@@H]2CC(=O)NCCSC1 observed_measurement=1896940
molecule=O=C1C[C@H]2CCCN2C(=O)[C@H](Cc2ccccc2)NC(=O)[C@@H](NC(=O)c2ccc(Cl)s2)CCSC/C=C/CSCCN1 observed_measurement=3830533
molecule=O=C1C[C@H]2CCCN2C(=O)[C@H](Cc2ccccc2)NC(=O)[C@@H](NC(=O)c2ccc(Cl)s2)CCCSC/C=C/CSCCN1 observed_measurement=2699618
molecule=O=C1C[C@H]2CCCN2C(=O)[C@H](Cc2ccccc2)NC(=O)[C@@H](NC(=O)c2ccc(Cl)s2)CCSCc2cccc(n2)CSCCN1 observed_measurement=7497114

# TIC value of compound, 30 min, R3 (molecule: O=C1C[C@H]2CCCN2C(=O)[C@H](Cc2ccccc2)NC(=O)[C@@H](NC(=O)c2ccc(Cl)s2)CSC/C=C/CSCCN1 [peptide 32] ) is 35161

* * *

Some compounds, each annotated with its measured TIC value of compound, 15 min, R3.
# test method notes: Metabolic stability in rat liver microsomes (RLMs)
# setup conditions: rat liver microsomes, 15 min, replicate R3
Please state the value as a number alone, without comment.

Worked cases, TIC value of compound, 15 min, R3 given:
compound=O=C1C[C@H]2CCCN2C(=O)[C@H](Cc2ccccc2)NC(=O)[C@@H](NC(=O)c2ccc(Cl)s2)CSCc2cccc(n2)CSCCN1 observed_measurement=14991116
compound=O=C1C[C@H]2CCCN2C(=O)[C@H](Cc2ccccc2)NC(=O)[C@@H](NC(=O)c2ccc(Cl)s2)CCCSC/C=C/CSCCN1 observed_measurement=6211335
compound=O=C1CSCCC[C@H](NC(=O)c2ccc(Cl)s2)C(=O)N[C@@H](Cc2ccccc2)C(=O)N2CCC[C@@H]2CC(=O)NCCSC1 observed_measurement=4037534
compound=O=C1C[C@H]2CCCN2C(=O)[C@H](Cc2ccccc2)NC(=O)[C@@H](NC(=O)c2ccc(Cl)s2)CCSCc2cccc(n2)CSCCN1 observed_measurement=11416589
compound=O=C1C[C@H]2CCCN2C(=O)[C@H](Cc2ccccc2)NC(=O)[C@@H](NC(=O)c2ccc(Cl)s2)CCCSCc2cccc(n2)CSCCN1 observed_measurement=13375542
compound="O=C1C[C@H]2CCCN2C(=O)[C@H](Cc2ccccc2)NC(=O)[C@@H](NC(=O)c2ccc(Cl)s2)CSC/C=C/CSCCN1 [peptide 32]" observed_measurement=435364

Please look at the following compound next.
Per the records, this compound ( `O=C1C[C@H]2CCCN2C(=O)[C@H](Cc2ccccc2)NC(=O)[C@@H](NC(=O)c2ccc(Cl)s2)CCSC/C=C/CSCCN1` ) has TIC value of compound, 15 min, R3 equal to 6630237

* * *

# test method notes: in vivo
# setup conditions: male, Wistar Han, rat, iv, 1 mg/kg, Concentration in blood samples
experimental endpoint: level at time molar at 1 h
Remember to quote the unit after the number.

O=C1C[C@H]2CCCN2C(=O)[C@H](Cc2ccccc2)NC(=O)[C@@H](NC(=O)c2ccc(Cl)cc2)CCC=CCCCCN1 (mixture of isomers) [peptide 46] has a reported level at time molar at 1 h of 120 nM

* * *

# tgt: human α-thrombin (Homo sapiens)
# test method notes: Sub-library screen for active and permeable cyclic peptides (PAMPA plus thrombin inhibition)
# Assay type: biochemical
# setup conditions: donor sample diluted to theoretical equilibrium (1 μM in assay); crude; slopes normalized to DMSO
Items are presented alongside their recorded Residual thrombin activity: Equilibrated sample.
Field format: numeric only.

Use the examples below as a reference point.
compound="O=C1C[C@H]2CCCN2C(=O)[C@H](Cc2ccc(Cl)cc2)NC(=O)[C@@H](NC(=O)c2ccc(Cl)s2)CSCc2ccccc2CSCCN1 [C1-X34-L6]" observed_measurement=92.0
compound="COc1ccc(C[C@@H]2NC(=O)[C@@H](NC(=O)c3ccc(Cl)s3)CCCSC/C=C/CSCCNC(=O)C[C@H]3CCCN3C2=O)cc1 [C3-X33-L4]" observed_measurement=97.8
compound="O=C1C[C@H]2CCCN2C(=O)[C@H](Cc2ccc(Cl)cc2)NC(=O)[C@@H](NC(=O)c2ccc(Cl)s2)CCCSCc2ccc(cc2)CSCCN1 [C3-X34-L3]" observed_measurement=96.4
compound="O=C1C[C@H]2CCCN2C(=O)[C@@H](Cc2ccccc2)NC(=O)[C@@H](NC(=O)c2ccc(Cl)s2)CCSCCS(=O)(=O)CCSCCN1 [C2-X31-L2]" observed_measurement=98.6
compound="O=C1C[C@H]2CCCN2C(=O)[C@@H](Cc2ccccc2)NC(=O)[C@@H](NC(=O)c2ccc(Cl)s2)CCCSCc2cccc(n2)CSCCN1 [C3-X31-L1]" observed_measurement=92.4

Looking up O=C1C[C@H]2CCCN2C(=O)[C@H](Cc2ccc(C(F)(F)F)cc2)NC(=O)[C@@H](NC(=O)c2ccc(Cl)s2)CCSCc2cccc(c2)CSCCN1 [C2-X36-L5] , I found its Residual thrombin activity: Equilibrated sample recorded as 106.1

For O=C1C[C@H]2CCCN2C(=O)[C@H](Cc2ccccc2)NC(=O)[C@@H](NC(=O)c2ccc(Cl)s2)CCCSCc2ccccc2CSCCN1 [C3-X5-L6] the compound record lists Residual thrombin activity: Equilibrated sample as 55.6

So, O=C1CSCCNC(=O)C[C@H]2CCCN2C(=O)[C@H](Cc2ccccc2)NC(=O)[C@@H](NC(=O)c2ccc(Cl)s2)CCSC1 [C2-X5-L7] ? Its Residual thrombin activity: Equilibrated sample was 44.2

compound N#Cc1ccc(C[C@@H]2NC(=O)[C@@H](NC(=O)c3ccc(Cl)s3)CCSCc3cccc(n3)CSCCNC(=O)C[C@H]3CCCN3C2=O)cc1 [C2-X35-L1] , Residual thrombin activity: Equilibrated sample observed: 96.1

Lab note: COc1ccc(C[C@@H]2NC(=O)[C@@H](NC(=O)c3ccc(Cl)s3)CCCSCc3cccc(n3)CSCCNC(=O)C[C@H]3CCCN3C2=O)cc1 [C3-X33-L1] gave Residual thrombin activity: Equilibrated sample of 94.6

Residual thrombin activity: Equilibrated sample reported for this compound N#Cc1ccc(C[C@@H]2NC(=O)[C@@H](NC(=O)c3ccc(Cl)s3)CCCSCc3ccc(cc3)CSCCNC(=O)C[C@H]3CCCN3C2=O)cc1 [C3-X35-L3] : 94.6

The reported value for O=C1C[C@H]2CCCN2C(=O)[C@@H](Cc2ccccc2)NC(=O)[C@@H](NC(=O)c2ccc(Cl)s2)CCSCc2ccc(cc2)CSCCN1 [C2-X31-L3] in terms of Residual thrombin activity: Equilibrated sample is 100.5

* * *

# test method notes: Passive artificial membrane permeability (PAMPA)
# setup conditions: PAMPA, pH 7.4
MET if Papp at 50 μM is below 2 ×10⁻⁶ cm/s. NOT MET if not; exact matches included in NOT MET.

Worked set:
compound=CC(C)[C@@H]1NC(=O)[C@@H](NC(=O)c2ccc(Cl)s2)CNC(=O)CCSCc2cccc(n2)CSCCNC1=O class_assignment=MET
compound=O=C1CSCCC[C@H](NC(=O)c2ccc(Cl)s2)C(=O)N[C@@H](Cc2ccccc2)C(=O)N2CCC[C@@H]2CC(=O)NCCSC1 class_assignment="NOT MET"
compound=O=C1C[C@H]2CCCN2C(=O)[C@H](Cc2ccccc2)NC(=O)[C@@H](NC(=O)c2ccc(Cl)s2)CC=CCCCN1 class_assignment="NOT MET"
compound=O=C1CCSC/C=C/CSCCNC(=O)[C@H](CNC(=O)c2ccc(Cl)s2)NC(=O)[C@H](Cc2ccccn2)N1 class_assignment=MET
compound=C[C@@H]1NC(=O)[C@@H](NC(=O)c2ccc(Cl)s2)CSCc2cccc(n2)CSCCNC(=O)[C@H]2CCCN(C2)C1=O class_assignment="NOT MET"

Threshold test, Papp at 50 μM < 2 ×10⁻⁶ cm/s: `O=C1C[C@H]2CCCN2C(=O)[C@H](Cc2ccccc2)NC(=O)[C@@H](NC(=O)c2ccc(Cl)s2)CCCSCc2cccc(n2)CSCCN1`
NOT MET

* * *

# test method notes: Metabolic stability in rat liver microsomes (RLMs)
# setup conditions: rat, microsomes, Metabolic stability: RLM CL (ul/min/mg), RLMs; mean and SD, three measurements
experimental endpoint: microsomal CLint (µL/min/mg)
Enter your answer as a number in µL/min/mg; do not include the unit.

Check out these entries, answers already filled in.
molecule=O=C1C[C@H]2CCCN2C(=O)[C@H](Cc2ccccn2)NC(=O)[C@@H](NC(=O)c2ccc(Cl)s2)CSCCS(=O)(=O)CCSCCN1 experimental_endpoint="microsomal CLint" value_units=µL/min/mg observed_measurement=77
molecule=O=C1CSCCC[C@H](NC(=O)c2ccc(Cl)s2)C(=O)N[C@@H](Cc2ccccc2)C(=O)N2CCC[C@@H]2CC(=O)NCCSC1 experimental_endpoint="microsomal CLint" value_units=µL/min/mg observed_measurement=95
molecule="O=C(N[C@H]1CSC/C=C\\CSCCNC(=O)C2(CC2)CNC(=O)[C@H](CO)NC1=O)c1cccnc1 [peptide 2]" experimental_endpoint="microsomal CLint" value_units=µL/min/mg observed_measurement=10.7
molecule=O=C1CC2CCN(CC2)C(=O)[C@H](Cc2ccccc2)NC(=O)[C@@H](NC(=O)c2ccc(Cl)s2)CSCCS(=O)(=O)CCSCCN1 experimental_endpoint="microsomal CLint" value_units=µL/min/mg observed_measurement=151
molecule=O=C1NCCSCc2cccc(n2)CSC[C@H](NC(=O)c2ccc(Cl)s2)C(=O)N[C@@H](CO)C(=O)NCc2cccc1c2 experimental_endpoint="microsomal CLint" value_units=µL/min/mg observed_measurement=55

The molecule listed as `O=C1C[C@H]2CCCN2C(=O)[C@H](Cc2ccccc2)NC(=O)[C@@H](NC(=O)c2ccc(Cl)s2)CCCSC/C=C/CSCCN1` shows microsomal CLint equal to 67

The molecule identified as `CC(C)[C@@H]1NC(=O)[C@@H](NC(=O)c2ccc(Cl)s2)CNC(=O)CCSCc2cccc(n2)CSCCNC1=O` registered its microsomal CLint at 41

Briefly, microsomal CLint measured for O=C1NCCSCc2cccc(n2)CSCCC(=O)N2CCC[C@H]2C(=O)N2CCN(C(=O)c3ccc(Cl)s3)CC12 (some centres unmarked) : 74
